Conditions: in methanol, 283.15 K
Assay Metric: solubility (mole fraction)
Could you keep your reply to the number by itself?

Problem: Name the recorded solubility (mole fraction) for CNc1nc(C)nc(OC)n1 .
Result: 0.0766

====

Details: in DMF, 288.15 K
Assay Metric: solubility (mole fraction)

Problem: solubility (mole fraction) for CNc1nc(C)nc(OC)n1 ?
Result: 0.245

====

Conditions: in DMF, 308.15 K
Assay Metric: solubility (mole fraction)
Lab note: jot down the number only; don't add units.

Problem: Value lookup for solubility (mole fraction); key = CNc1nc(C)nc(OC)n1
Result: 0.357

====

Conditions: in DMF, 303.15 K
Assay Metric: solubility (mole fraction)
Kindly provide the number alone.

Problem: # lookup: solubility (mole fraction) of CNc1nc(C)nc(OC)n1
Result: 0.324
